pIC50 values, listed per item
experiment: Activity against CMP-KDO synthetase-KDO-lipid A transferase (CKS-KLT) assay from Escherichia coli D21
Please report pIC50 as the negative decimal logarithm of the molar concentration, giving only the number.

Some solved cases for reference:
>  <smiles_representation>
N.O=C(O)[C@@H]1C[C@@H](O)[C@@H](O)[C@@H]([C@H](O)CS)O1

>  <test_value>
4.77

$$$$
>  <smiles_representation>
NC[C@@H](O)[C@H]1O[C@H](C(=O)O)C[C@@H](O)[C@H]1O

>  <test_value>
5.13

$$$$
>  <smiles_representation>
C[C@@H](O)[C@H]1O[C@H](C(=O)O)C[C@@H](O)[C@H]1O

>  <test_value>
5.17

$$$$
>  <smiles_representation>
N.[N-]=[N+]=NC[C@@H](O)[C@H]1O[C@H](C(=O)O)C[C@@H](O)[C@H]1O

>  <test_value>
4.10

$$$$
>  <smiles_representation>
O=C(O)[C@@H]1C[C@@H](O)[C@@H](O)[C@@H]([C@H](O)CF)O1

>  <test_value>
5.32

$$$$

Shifting focus to the compound that follows.
Ask: Item under review: O=C(O)[C@@H]1C[C@@H](O)[C@@H](O)[C@@H]([C@H](O)CO)O1 . Reported pIC50?
Reply: 5.00

Hey, just so you know, these numbers are from ChEMBL document CHEMBL1124661.
